- assay explanation: Effective concentration that reduces HIV-induced cytopathic effect by 50% was determined by reverse transcriptase (RT) assay.
Measured pEC50, listed per entry for reference.
In simple prose, pEC50 is minus the logarithm base ten of a concentration in moles per litre.

The examples below pair each entry with its known result.
| molecule | quantity | recorded value |
| --- | --- | --- |
| Cc1cn([C@H]2C=C[C@@H](CO)O2)c(=O)[nH]c1=O [2',3'-didehydro-3'-deoxythymidine] | pEC50 | 7.30 |
| CCCCCCCCCCCCCCCCOP(=O)(O)OCC1C=CC(n2cc(C)c(=O)[nH]c2=O)O1 (stereo not given) | pEC50 | 6.70 |
| Cc1cn([C@H]2C[C@H](N=[N+]=[N-])[C@@H](CO)O2)c(=O)[nH]c1=O | pEC50 | 8.00 |
| Cc1cn(C2C=CC(COP(=O)(O)OCC3C=CC(n4cc(C)c(=O)[nH]c4=O)O3)O2)c(=O)[nH]c1=O (stereo not given) | pEC50 | 7.30 |

Give the reported pEC50 for this molecule. CCCCCCCCCCCCCCCC(=O)OCC1C=CC(n2cc(C)c(=O)[nH]c2=O)O1 (stereo not given)
7.10
